tested on: pressor; assay: pressor efficiency, inhibition activity pA2; assay type: in vivo; details: decimal commas
measurement_label: Inhibition activity pA2 in the determination of efficiency pressor

compound	recorded_value
CC1(C)SSC(C)(C)[C@@H](C(=O)N2CCC[C@H]2C(=O)N[C@@H](CCCCN)C(=O)NCC(N)=O)NC(=O)[C@H](CC(N)=O)NC(=O)[C@H](CCC(N)=O)NC(=O)[C@H](Cc2ccccc2)NC(=O)[C@H](Cc2ccc(O)cc2)NC(=O)[C@H]1N [Ii]	7,18
CC(=O)N[C@@H]1C(=O)N[C@@H](Cc2ccc(O)cc2)C(=O)N[C@@H](Cc2ccccc2)C(=O)N[C@@H](CCC(N)=O)C(=O)N[C@@H](CC(N)=O)C(=O)N[C@H](C(=O)N2CCC[C@H]2C(=O)N[C@@H](CCCCN)C(=O)NCC(N)=O)CSSC1(C)C [Ie]	ineffective
CC[C@H](C)[C@@H]1NC(=O)[C@H](Cc2ccc(O)cc2)NC(=O)[C@@H](NC(C)=O)C(C)(C)SSC[C@@H](C(=O)N2CCC[C@H]2C(=O)N[C@@H](CC(C)C)C(=O)NCC(N)=O)NC(=O)[C@H](CC(N)=O)NC(=O)[C@H](CCC(N)=O)NC1=O [Ia, [1-N-acetylpenicilamine]oxytocin]	ineffective
CC[C@H](C)[C@@H]1NC(=O)[C@H](Cc2ccc(OC)cc2)NC(=O)[C@@H](NC(C)=O)C(C)(C)SSC[C@@H](C(=O)N2CCC[C@H]2C(=O)N[C@@H](CC(C)C)C(=O)NCC(N)=O)NC(=O)[C@H](CC(N)=O)NC(=O)[C@H](CCC(N)=O)NC1=O [Ic]	6,4

---

system: pressor; assay: pressor efficiency, inhibition activity pA2; format: in vivo; details: decimal commas
measurement_label: Inhibition activity pA2 in the determination of efficiency pressor

Below: 3 compounds and their reported Inhibition activity pA2 in the determination of efficiency pressor.
compound	target_or_system	recorded_value
COc1ccc(C[C@@H]2NC(=O)[C@@H](N)C(C)(C)SSC[C@@H](C(=O)N3CCC[C@H]3C(=O)N[C@@H](CCCCN)C(=O)NCC(N)=O)NC(=O)[C@H](CC(N)=O)NC(=O)[C@H](CCC(N)=O)NC(=O)[C@H](Cc3ccccc3)NC2=O)cc1	pressor	7,4
COc1ccc(C[C@@H]2NC(=O)[C@@H](NC(C)=O)C(C)(C)SSC[C@@H](C(=O)N3CCC[C@H]3C(=O)N[C@@H](CCCCN)C(=O)NCC(N)=O)NC(=O)[C@H](CC(N)=O)NC(=O)[C@H](CCC(N)=O)NC(=O)[C@H](Cc3ccccc3)NC2=O)cc1	pressor	6,7
CC1(C)SSC[C@@H](C(=O)N2CCC[C@H]2C(=O)N[C@@H](CCCCN)C(=O)NCC(N)=O)NC(=O)[C@H](CC(N)=O)NC(=O)[C@H](CCC(N)=O)NC(=O)[C@H](Cc2ccccc2)NC(=O)[C@H](Cc2ccc(O)cc2)NC(=O)[C@H]1N [Id, [1-Penicilamine, 8-lysine]vasopressin]	pressor	6,9

We now examine a further compound.
Entry CC1(C)SSC[C@H](N)C(=O)N[C@@H](Cc2ccc(O)cc2)C(=O)N[C@@H](Cc2ccccc2)C(=O)N[C@@H](CCC(N)=O)C(=O)N[C@@H](CC(N)=O)C(=O)N[C@@H]1C(=O)N1CCC[C@H]1C(=O)N[C@@H](CCCCN)C(=O)NCC(N)=O [Ih, [6-Penicilamine, 8-lysine]vasopressin] : reported Inhibition activity pA2 in the determination of efficiency pressor = ?
6,73
